# testedTarget: Neuronal acetylcholine receptor subunit alpha-4/beta-2 (Homo sapiens, UniProt P43681+P17787)
# Sequence (P43681 whole entry): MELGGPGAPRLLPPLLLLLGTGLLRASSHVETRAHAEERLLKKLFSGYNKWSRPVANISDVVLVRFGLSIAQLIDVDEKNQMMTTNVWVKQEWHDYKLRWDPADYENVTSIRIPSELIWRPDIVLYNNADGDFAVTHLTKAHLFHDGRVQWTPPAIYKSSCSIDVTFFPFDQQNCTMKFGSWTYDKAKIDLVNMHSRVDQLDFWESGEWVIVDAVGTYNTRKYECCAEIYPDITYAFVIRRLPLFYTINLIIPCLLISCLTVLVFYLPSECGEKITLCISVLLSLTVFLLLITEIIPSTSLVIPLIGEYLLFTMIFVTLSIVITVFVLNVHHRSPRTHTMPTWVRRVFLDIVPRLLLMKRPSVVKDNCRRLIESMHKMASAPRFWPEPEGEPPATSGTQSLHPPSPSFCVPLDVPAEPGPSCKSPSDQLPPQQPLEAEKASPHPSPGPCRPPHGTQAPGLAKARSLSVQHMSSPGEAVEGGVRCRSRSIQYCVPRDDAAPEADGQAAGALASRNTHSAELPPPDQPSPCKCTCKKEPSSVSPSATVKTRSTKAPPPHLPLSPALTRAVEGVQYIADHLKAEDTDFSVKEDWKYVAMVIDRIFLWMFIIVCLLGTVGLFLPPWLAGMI
# Sequence (P17787 whole entry): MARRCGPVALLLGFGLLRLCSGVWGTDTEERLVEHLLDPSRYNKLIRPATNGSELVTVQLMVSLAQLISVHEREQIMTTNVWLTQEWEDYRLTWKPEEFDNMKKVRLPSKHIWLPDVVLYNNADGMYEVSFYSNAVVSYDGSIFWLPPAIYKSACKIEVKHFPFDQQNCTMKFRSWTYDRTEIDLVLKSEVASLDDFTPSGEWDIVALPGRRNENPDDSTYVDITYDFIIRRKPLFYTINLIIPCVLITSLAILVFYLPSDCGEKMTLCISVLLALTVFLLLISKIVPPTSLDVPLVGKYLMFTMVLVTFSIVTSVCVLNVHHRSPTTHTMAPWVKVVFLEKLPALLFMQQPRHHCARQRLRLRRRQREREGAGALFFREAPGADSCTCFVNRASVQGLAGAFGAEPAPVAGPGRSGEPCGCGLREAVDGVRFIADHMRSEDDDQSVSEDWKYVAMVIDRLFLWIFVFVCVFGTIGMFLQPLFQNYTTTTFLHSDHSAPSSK
# experimentSummary: Antagonist activity at human nAChR alpha4/beta2 receptor expressed in HEK ts201 cells assessed as calcium accumulation by fluorescence analysis

{"molecule": "CCN1CCCC(COC(=O)c2ccccc2-n2c(O)cc(Cc3ccccc3)c2O)C1 (stereo not given)", "IC50 [µM]": 4.47}
{"molecule": "Cc1cc(O)n(-c2ccccc2C(=O)OC[C@@H]2CCCN(CCCc3ccccc3)C2)c1O", "IC50 [µM]": 8.91}
{"molecule": "O=C(OCC1CCCN(CCCc2ccccc2)C1)c1ccccc1-n1c(O)cc(CCc2ccccc2)c1O (stereo not given)", "IC50 [µM]": 5.13}
{"molecule": "O=C(OCC1CCCN(CCc2ccccc2)C1)c1ccccc1-n1c(O)cc(Cc2ccccc2)c1O (stereo not given)", "IC50 [µM]": 4.47}
{"molecule": "O=C(OCC1=CCCN(CCCc2ccccc2)C1)c1ccccc1-n1c(O)cc(Cc2ccccc2)c1O", "IC50 [µM]": 5.13}
